The reported measurements were obtained from patent US20250041277A1.

Tested on: NCI-2291
Assay: Combinatorial activity in LUAD cell line NCI-2291
Assay type: cell-based
Conditions: NCI-2291, KRAS G12C/F/V; single agent; read-out: (nM) s.a.
Description: Combinatorial activity of PF-07104091 and PF-07220060 was assessed in LUADs as single agents (s.a.) or in combination.

# givenSmiles, uom, IC50
records = [
    ("CC(C)n1c(C(C)(C)O)nc2c(F)cc(-c3nc(N[C@@H]4CCOC[C@H]4O)ncc3Cl)cc21", "nM", 138),
]
